Entry source: patent US11891386B2

Test system: mouse hepatocytes
Assay comment: Hepatocyte intrinsic clearance assay, mouse hepatocytes
Format: in vitro ADME
Test parameters: Mouse Hepatocytes, 1 μM test compound
# CLint (μL/min/10^6 ells) per record follows
Your answer should be a plain number; it is taken to be in μL/min/10^6 ells.

Use the examples below as a reference point.
Nc1nnc(-c2csc(C(=O)c3c[nH]c4cc(Cl)c(Cl)cc34)n2)o1 [ARI-120] | 0.9
CCC(=O)c1csc(C(=O)c2c[nH]c3cc(F)ccc23)n1 [ARI-143] | 2.3

Now for another entry.
Record summary for COC(=O)c1csc(C(=O)c2c[nH]c3ccccc23)n1 [ARI-001, ITE] : reported CLint (μL/min/10^6 ells) = 585.7

###

Assay comment: Hepatocyte intrinsic clearance assay, mouse hepatocytes
Assay type: in vitro ADME
Test parameters: male, IRC/CD-1, cryopreserved mouse hepatocytes; Mouse Hepatocytes, 1 μM test compound
Recorded metric: half-life at 1 μM (h)
// return numeric value only (unit: h, not printed)

These recorded examples may help you get a feel for the data.
NCc1nc(-c2csc(C(=O)c3c[nH]c4c(F)cccc34)n2)no1 | 1.67
CCC(=O)c1csc(C(=O)c2c[nH]c3cccc(F)c23)n1 | 1.1
CCC(=O)c1csc(C(=O)c2c[nH]c3c(F)cccc23)n1 | 7.5
Nc1nnc(-c2csc(C(=O)c3c[nH]c4c(F)cccc34)n2)o1 | 14
Nc1nnc(-c2csc(C(=O)c3c[nH]c4ccccc34)n2)o1 | 16.1
CNC(=O)c1csc(C(=O)c2c[nH]c3ccccc23)n1 | 0.0467
Nc1nnc(-c2csc(C(=O)c3c[nH]c4ccccc34)n2)s1 | 4.7
Nc1nnc(-c2csc(C(=O)c3c[nH]c4ccc(F)cc34)n2)o1 | 3.17
COC(=O)c1csc(C(=O)c2c[nH]c3ccc(Cl)cc23)n1 | 2.25

Now consider the entry below.
Lab note: measured half-life at 1 μM of `O=C(c1nc(-c2nnco2)cs1)c1c[nH]c2ccccc12` was 0.447

###

In this section we review reported CLint (μL/min/10^6 ells) values for a set of compounds.
System: mouse hepatocytes
Assay comment: Hepatocyte intrinsic clearance assay, mouse hepatocytes
Type: in vitro ADME
Test parameters: Mouse Hepatocytes, 1 μM test compound
Answer with a number only, understood to be in μL/min/10^6 ells.

Consider the following illustrative entries.
Cc1noc(-c2csc(C(=O)c3c[nH]c4ccccc34)n2)n1 | 1.0
Nc1nnc(-c2csc(C(=O)c3c[nH]c4c(F)cccc34)n2)o1 | 0.8
CNC(=O)c1csc(C(=O)c2c[nH]c3ccc(Cl)cc23)n1 | 7.3
CCC(=O)c1csc(C(=O)c2c[nH]c3ccc(F)cc23)n1 | 6.3

Moving on to another compound below.
According to the records, this compound `COC(=O)c1csc(C(=O)c2c[nH]c3ccc(Cl)cc23)n1` displays CLint (μL/min/10^6 ells) of 5.1

###

Below, each of the molecules is paired with its reported CLint (μL/min/10^6 ells) value.
Tested on: human hepatocytes
Assay comment: Hepatocyte intrinsic clearance assay, human hepatocytes
Format: in vitro ADME
Test parameters: Human Hepatocytes, 1 μM test compound
Just the number please, in μL/min/10^6 ells, no unit attached.

Some solved entries appear below for comparison.
CCC(=O)c1csc(C(=O)c2c[nH]c3ccc(F)cc23)n1 | 6.0
Nc1nnc(-c2csc(C(=O)c3c[nH]c4ccc(F)cc34)n2)o1 | 2.5
Nc1nnc(-c2csc(C(=O)c3c[nH]c4ccccc34)n2)o1 | 1.1

// recorded CLint (μL/min/10^6 ells) for `COC(=O)c1csc(C(=O)c2c[nH]c3ccc(F)cc23)n1` : 98.7

# CLint (μL/min/10^6 ells) of `Nc1nnc(-c2csc(C(=O)c3c[nH]c4ccccc34)n2)s1` = 5.3

The molecule `CCC(=O)c1csc(C(=O)c2c[nH]c3cccc(F)c23)n1` showed CLint (μL/min/10^6 ells) equal to 8.1

GET /value?item= `O=C(c1nc(-c2nnco2)cs1)c1c[nH]c2ccccc12` &field=CLint (μL/min/10^6 ells) returns 17.7

Entry `COC(=O)c1csc(C(=O)c2c[nH]c3ccccc23)n1` , CLint (μL/min/10^6 ells) reported as 220.4

The recorded CLint (μL/min/10^6 ells) for entry `Cc1noc(-c2csc(C(=O)c3c[nH]c4ccccc34)n2)n1` equals 0.7

Value of measured CLint (μL/min/10^6 ells) for the entry `Cc1nnc(-c2csc(C(=O)c3c[nH]c4ccccc34)n2)o1` : 2.5

Lab book: CLint (μL/min/10^6 ells) of `CNC(=O)c1csc(C(=O)c2c[nH]c3ccc(Cl)cc23)n1` noted as 3.0

response.value for `Nc1nnc(-c2csc(C(=O)c3c[nH]c4cc(Cl)c(Cl)cc34)n2)o1` (field: CLint (μL/min/10^6 ells)) = 0.8

The value of CLint (μL/min/10^6 ells) measured for the molecule `Cc1nc(-c2csc(C(=O)c3c[nH]c4ccccc34)n2)no1` turned out to be 1.8

// sample `CCC(=O)c1csc(C(=O)c2c[nH]c3cc(F)c(F)cc23)n1` , its CLint (μL/min/10^6 ells) was 5.3

Quick note, CLint (μL/min/10^6 ells) for `NCc1nc(-c2csc(C(=O)c3c[nH]c4c(F)cccc34)n2)no1` landed at 1.9
